# method_notes: Human HepG2 cell viability dose-response assay
# Type: toxicity, cell-based
For each record, write down the corresponding pXC50.

Ask | Name the reported pXC50 value associated with the molecule "COCc1cc(N(C)Cc2c(C)nn(C)c2C)n2nccc2n1"
Reply | < 4.53

Ask | Then what about the molecule "CCCn1ncc(-c2ccnc(NC3CC(C)(C)NC(C)(C)C3)n2)c1C" ?
Reply | < 4.53

Ask | Then what about the molecule COc1ccc(C2CCCN2c2nnc(C)s2)c(OC)c1 (stereo unspecified) ?
Reply | < 4.53

Ask | Then what about the molecule CC(O)CN1CCC(CNCc2c[nH]nc2C(C)(C)C)CC1 (stereo unspecified) ?
Reply | < 4.53

Ask | Then what about the molecule Cc1cnc(C(=O)N2CCCC(n3ccnc3C)C2)cn1 (stereo unspecified) ?
Reply | < 4.53

Ask | Then what about the molecule "Cc1cc(NC(=O)CN2CCn3c(nnc3C(C)C)C2)no1" ?
Reply | < 4.53

Ask | Then what about the molecule Cc1nc(CN2CCCC(N(C)Cc3cnn(C)c3)C2)no1 (stereo unspecified) ?
Reply | < 4.53

Ask | Then what about the molecule Cc1cc(C(=O)NCC(O)c2c(Cl)cccc2Cl)nn1C (stereo unspecified) ?
Reply | < 4.53

Ask | Then what about the molecule "CCC(=O)Nc1ccc2c(c1)CN(C(=O)c1ccco1)CC2" ?
Reply | < 4.53

Ask | Then what about the molecule COCCn1c2c(ccc1=O)CC(NCc1cnn(C)c1)CC2 (stereo unspecified) ?
Reply | < 4.53

Ask | Then what about the molecule COCCN1CCN(Cc2cccc(C(N)=O)c2)CC1C (stereo unspecified) ?
Reply | < 4.53

* * *

# method_notes: Human HepG2 cell viability assay in 384 well format
# Assay type: toxicity, cell-based
# Parameters: dose 125 nL, time 70.5 hour; concentration not given beside the values
# condition_info: HepG2 cells, read-out: Inhibition
assay_readout: cytotoxicity at 70.5 h (%)
Could you give me the number in %? Just the number is fine.

Ask | Name the reported cytotoxicity at 70.5 h value associated with the molecule "O=C(Nc1nnc(N2CCCCC2)[nH]1)c1cccs1"
Reply | -0.727

Ask | Then what about the molecule "Cc1ccc(N2CC[C@H]3CN(C(=O)c4ccn(C)n4)C[C@H]3C2)nn1" ?
Reply | -7.56

Ask | Then what about the molecule "CN(Cc1n[nH]c(=O)n1Cc1ccco1)S(C)(=O)=O" ?
Reply | 2.27

Ask | Then what about the molecule "COc1ccccc1C(C)(C)NC(=O)NCCC(=O)NC1CCCC1" ?
Reply | -12.5

Ask | Then what about the molecule CN1CC2(COCCN(C(=O)c3ccco3)C2)OCC1=O (stereo unspecified) ?
Reply | 6.17

Ask | Then what about the molecule "Cc1cc(-c2cnc(NC3CC3)nc2-c2ccoc2)on1" ?
Reply | 2.18

Ask | Then what about the molecule O=C(c1ccc(OCC2CC2)nc1)N1CCCC(n2cccn2)C1 (stereo unspecified) ?
Reply | -7.07

Ask | Then what about the molecule "Cc1nn(C(C)C)c2cn(CC(=O)NC3CCSCC3)nc12" ?
Reply | -3.25

Ask | Then what about the molecule "COCCN1CCOCC12CCN(C(=O)c1ccoc1)CC2" ?
Reply | -4.83

Ask | Then what about the molecule "Cc1ccc(-c2nccn2-c2ccc(OC3CCN(C)CC3)cc2)o1" ?
Reply | 17

Ask | Then what about the molecule CN(CCc1cn[nH]c1)C(=O)C(c1ccc(F)cc1)N(C)C (stereo unspecified) ?
Reply | -9.33

* * *

# method_notes: Human HepG2 cell viability assay in 384 well format
# Type: toxicity, cell-based
# Parameters: dose 125 nL, time 70.5 hour; concentration not given beside the values
# condition_info: HepG2 cells, read-out: Inhibition
assay_readout: cytotoxicity at 70.5 h (%)
Could you give me the number in %? Just the number is fine.

Ask | Name the reported cytotoxicity at 70.5 h value associated with the compound "CSCC[C@H]1CN2CCC[C@H]2CN1Cc1coc2ccc(C)cc2c1=O"
Reply | 1.94

Ask | Then what about the compound CC(SCCNS(=O)(=O)c1cnn(C)c1)c1cccc(F)c1 (centres undefined) ?
Reply | -5.51

Ask | Then what about the compound CCOCC(O)CN1CCN(C(=O)Cc2ccc3c(c2)CCC3)CC1 (centres undefined) ?
Reply | 53.8

Ask | Then what about the compound CCN1CCCC(O)(CN(C)Cc2ccccc2F)C1 (centres undefined) ?
Reply | -9.61

Ask | Then what about the compound "NC(=O)CN1CCC(NC(=O)COCCOc2ccccc2)CC1" ?
Reply | -4.83

Ask | Then what about the compound CC(SCC(=O)N(C)CC(=O)NC1CC1)c1ccc(F)c(F)c1 (centres undefined) ?
Reply | -10.3

Ask | Then what about the compound COc1ccc2oc(C(C)NC(=O)NCc3noc(C)n3)c(C)c2c1 (centres undefined) ?
Reply | -12

Ask | Then what about the compound "OCCn1nccc1C1CCN(CCOc2ccc(Cl)cc2)CC1" ?
Reply | -1.15

Ask | Then what about the compound CCOc1ccc(CC(CNC(=O)c2ccco2)C(N)=O)cc1 (centres undefined) ?
Reply | -6.1

Ask | Then what about the compound "CC1(C)CN(C(=O)c2cnc(-c3ccccn3)nc2)CC[C@]1(C)O" ?
Reply | 0.152

Ask | Then what about the compound "Cc1csc2ncc(-c3ccnc(N4CCC[C@H](C(N)=O)C4)n3)c(=O)n12" ?
Reply | 14.4

Ask | Then what about the compound "O=C(C1CCOCC1)N1CC[C@@H]2[C@H]1CCC(=O)N2c1ccccc1" ?
Reply | 13.7

Ask | Then what about the compound "O=C(Cn1cc(C(=O)O)ccc1=O)Nc1cc(F)ccc1F" ?
Reply | -9.56

Ask | Then what about the compound "COc1ccc(CCN(C)C(=O)c2cc(C(C)=O)c[nH]2)cc1OC" ?
Reply | -11.9

Ask | Then what about the compound "CN(C)c1ccc(C(=O)N2CCN(Cc3cscn3)CC2)cn1" ?
Reply | -6.24

Ask | Then what about the compound "OC[C@@H](O)CN(CCC(F)(F)F)c1ncccn1" ?
Reply | 5.67

Ask | Then what about the compound CCc1nccn1-c1cncc(C2CCCN2)n1 (centres undefined) ?
Reply | -8.79

Ask | Then what about the compound "COCCC(=O)N1C[C@@H](O)[C@H](N2CCN(c3ccccc3)CC2)C1" ?
Reply | -2.33

Ask | Then what about the compound "COCCN(CCOC)c1nc2c(s1)c(C)nn2C" ?
Reply | -13.8

Ask | Then what about the compound O=C1COc2ccc(S(=O)(=O)NCC3CCCO3)c3c2N1CCC3 (centres undefined) ?
Reply | 1.71

Ask | Then what about the compound "O=C(NCC1CCN(C(=O)c2ccoc2)CC1)c1ccccc1Br" ?
Reply | -0.695

Ask | Then what about the compound "Cc1ncc(Cl)c(C(=O)N2CC(=O)N(C)c3ccccc32)n1" ?
Reply | -9.43

Ask | Then what about the compound "Cc1nn(C)cc1CN1CCC(c2ncc(Cl)cc2S(C)(=O)=O)CC1" ?
Reply | -6.84

Ask | Then what about the compound "CCCNc1ccc(C(=O)NCCc2cccc(OC)c2)cn1" ?
Reply | -3.99

* * *

# method_notes: Human HepG2 cell viability assay in 384 well format
# Type: toxicity, cell-based
# Design: dose 125 nL, time 70.5 hour; concentration not given beside the values
# condition_info: HepG2 cells, read-out: Inhibition
For each record, write down the corresponding cytotoxicity at 70.5 h.
Could you give me the number in %? Just the number is fine.

Ask | Name the reported cytotoxicity at 70.5 h value associated with the compound O=C(CC1=CSC2=NCCN12)N1CCCC(CCc2cccc(F)c2)C1 (stereo unspecified)
Reply | -13.5

Ask | Then what about the compound "Cc1cc(C)n(-c2ccc3nnc(C)n3n2)n1" ?
Reply | 18

Ask | Then what about the compound "COc1cc(N2CC[C@@H]3O[C@H](C(=O)NCC4CC4)C[C@@H]32)ncn1" ?
Reply | 16.5

Ask | Then what about the compound "CCc1cc(N2CCC(NCc3ccc(C)o3)CC2)ncn1" ?
Reply | 9.42

Ask | Then what about the compound O=C(CN1CCS(=O)(=O)CC1)NC1CCCOc2ccccc21 (stereo unspecified) ?
Reply | -3.91

Ask | Then what about the compound "CCc1nc(CC(=O)N2CCn3c(nnc3C(C)C)C2)cs1" ?
Reply | 0.586

Ask | Then what about the compound Cc1cc(C2CCCN2Cc2ccc(S(=O)(=O)N3CCCC3)o2)on1 (stereo unspecified) ?
Reply | -102

Ask | Then what about the compound "CCN(c1ccsc1C(=O)N1CCSCC1)S(=O)(=O)c1ccccc1" ?
Reply | 6.6

Ask | Then what about the compound CNC(=O)NC(=O)CN1CCN(c2ccc(C(=O)OC)cc2)CC1C (stereo unspecified) ?
Reply | -7.85

Ask | Then what about the compound "C=C(C)CN(CC)C(=O)c1cc(F)ccc1N1CCN(C)CC1" ?
Reply | -12.2

Ask | Then what about the compound CCn1cc(CN2CCCC(c3[nH]ncc3S(C)(=O)=O)C2)cn1 (stereo unspecified) ?
Reply | 1.9
